target: CDK9/Cyclin T1 (Homo sapiens (Human)); test: CDK9 enzyme assay (LANCE ULight TR-FRET kinase assay); conditions: 1000 μM ATP, 100 nM ULight MBP, kinase reaction 1 hour
Output yes (1) for records whose IC50 is lower than 0.08 µM, no (0) for records at or above 0.08 µM.

| compound | system | classification |
| --- | --- | --- |
| COC(=O)C(C)=C1CCC(N2CC=C(c3[nH]c4nccc5c4c3CN(C)c3ccc(F)cc3-5)CC2)CC1 (stereo not drawn) | CDK9/Cyclin T1 (Homo sapiens (Human)) | yes (1) |
| CN1Cc2c(C3=C[C@H]4CC[C@@H](C3)N4CC(=O)N3CC(O)C3)[nH]c3nccc(c23)-c2cc(F)ccc21 | CDK9/Cyclin T1 (Homo sapiens (Human)) | no (0) |
| CN1Cc2c(C3=CCN(CC(=O)O)CC3(C)C)[nH]c3nccc(c23)-c2cc(F)ccc21 | CDK9/Cyclin T1 (Homo sapiens (Human)) | no (0) |

I wonder whether CN1Cc2c(C3=CCC(C(=O)N4CC(O)C4)CC3)[nH]c3nccc(c23)-c2cc(F)ccc21 (stereo not drawn) has IC50 below 0.08 µM. Can you tell? no (0)

I wonder whether CN1Cc2c(C3=CC4CCCC(C3)N4CC(=O)N3CC(O)C3)[nH]c3nccc(c23)-c2cc(F)ccc21 (stereo not drawn) has IC50 below 0.08 µM. Can you tell? no (0)

I wonder whether CN1Cc2c(C3=CCN(C4CCC(C(=O)O)CC4)CC3)[nH]c3nccc(c23)-c2ccccc21 (stereo not drawn) has IC50 below 0.08 µM. Can you tell? no (0)

I wonder whether `CN1Cc2c(C3=CCN([C@H]4CC[C@H](CC(=O)O)CC4)CC3)[nH]c3ncc(F)c(c23)-c2cc(F)ccc21` has IC50 below 0.08 µM. Can you tell? yes (1)

I wonder whether `CN1Cc2c(C3=CCCN(S(C)(=O)=O)CC3)[nH]c3nccc(c23)-c2cc(F)ccc21` has IC50 below 0.08 µM. Can you tell? no (0)

I wonder whether CNC(=O)N1C2C=C(c3[nH]c4nccc5c4c3CN(C)c3ccc(F)cc3-5)CC1CCC2 (stereo not drawn) has IC50 below 0.08 µM. Can you tell? no (0)

I wonder whether `CN(CCO)C(=O)CN1CC=C(c2[nH]c3nccc4c3c2CN(C)c2cc(F)c(F)cc2-4)CC1` has IC50 below 0.08 µM. Can you tell? yes (1)

I wonder whether `CN1Cc2c(C3=CCNCC3(C)C)[nH]c3nccc(c23)-c2cc(F)ccc21` has IC50 below 0.08 µM. Can you tell? no (0)

I wonder whether CN1Cc2c(C3=CC4CCCC(C3)N4C(=O)CC#N)[nH]c3nccc(c23)-c2cc(F)ccc21 (stereo not drawn) has IC50 below 0.08 µM. Can you tell? yes (1)

I wonder whether `CN1Cc2c(C3=CCN(S(C)(=O)=O)CC3)[nH]c3ncc(F)c(c23)-c2ccccc21` has IC50 below 0.08 µM. Can you tell? yes (1)

====

Entries and their log10 IC50
biological target: CDK9/Cyclin T1 (Homo sapiens (Human), UniProt P50750); assay: CDK9 enzyme assay (LANCE ULight TR-FRET kinase assay); conditions: 1000 μM ATP, 100 nM ULight MBP, kinase reaction 1 hour
Sequence (P50750 whole entry): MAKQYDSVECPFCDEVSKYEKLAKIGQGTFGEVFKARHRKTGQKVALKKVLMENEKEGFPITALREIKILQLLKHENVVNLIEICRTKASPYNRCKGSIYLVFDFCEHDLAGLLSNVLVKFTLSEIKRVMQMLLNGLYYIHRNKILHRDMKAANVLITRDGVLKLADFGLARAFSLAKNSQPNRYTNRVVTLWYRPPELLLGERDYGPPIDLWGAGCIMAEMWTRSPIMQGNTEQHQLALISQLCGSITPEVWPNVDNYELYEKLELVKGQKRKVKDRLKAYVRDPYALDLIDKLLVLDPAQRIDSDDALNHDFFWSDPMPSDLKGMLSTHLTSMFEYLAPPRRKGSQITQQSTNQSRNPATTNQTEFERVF
Sequence (O60563 whole entry partner): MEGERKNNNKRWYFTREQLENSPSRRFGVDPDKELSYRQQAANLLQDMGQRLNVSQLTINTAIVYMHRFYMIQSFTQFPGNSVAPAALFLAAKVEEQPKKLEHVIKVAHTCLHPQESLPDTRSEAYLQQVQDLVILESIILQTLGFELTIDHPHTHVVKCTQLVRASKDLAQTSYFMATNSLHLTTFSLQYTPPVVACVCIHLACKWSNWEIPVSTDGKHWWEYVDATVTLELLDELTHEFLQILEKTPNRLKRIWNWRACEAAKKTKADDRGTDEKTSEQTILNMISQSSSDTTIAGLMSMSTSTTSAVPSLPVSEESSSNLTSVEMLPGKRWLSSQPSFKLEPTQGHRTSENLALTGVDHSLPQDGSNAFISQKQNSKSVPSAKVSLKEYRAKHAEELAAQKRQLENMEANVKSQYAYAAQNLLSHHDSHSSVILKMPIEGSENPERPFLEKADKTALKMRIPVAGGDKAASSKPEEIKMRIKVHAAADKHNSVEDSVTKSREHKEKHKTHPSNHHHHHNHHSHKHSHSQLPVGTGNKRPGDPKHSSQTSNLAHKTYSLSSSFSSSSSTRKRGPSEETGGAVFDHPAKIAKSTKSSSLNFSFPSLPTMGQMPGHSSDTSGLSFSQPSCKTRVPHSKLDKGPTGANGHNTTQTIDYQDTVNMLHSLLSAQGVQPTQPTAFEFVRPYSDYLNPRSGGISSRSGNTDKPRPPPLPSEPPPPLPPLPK
The common logarithm of IC50 in nM is what is listed.

Guide cases for log10 IC50, answers given:
| compound | endpoint | recorded_result |
| --- | --- | --- |
| CN1Cc2c(C3=CCN(CC(=O)N(C)C4CC(O)C4)CC3)[nH]c3nccc(c23)-c2cc(F)ccc21 (centres unmarked) | log10 IC50 | 1.60 |
| CN1Cc2c(C3=CCC(N[C@H](C(=O)O)c4ccccc4)CC3)[nH]c3nccc(c23)-c2cc(F)ccc21 (some centres unmarked) | log10 IC50 | 1.75 |
| O=C(O)CC1CCC(N2CC=C(c3[nH]c4nccc5c4c3COc3ccc(F)cc3-5)CC2)CC1 (centres unmarked) | log10 IC50 | 2.59 |
| CN1Cc2c(C3=CCCN(C4CCC(=CC(=O)O)CC4)CC3)[nH]c3nccc(c23)-c2cc(F)ccc21 (centres unmarked) | log10 IC50 | 2.11 |
| CN1Cc2c(C3=CCN(C4CCC(C(C#N)C(=O)O)CC4)CC3)[nH]c3nccc(c23)-c2cc(F)ccc21 (centres unmarked) | log10 IC50 | 1.94 |
| CN1Cc2c(C3=CCNCC3)[nH]c3ncc(F)c(c23)-c2cc(F)ccc21 | log10 IC50 | 1.43 |

# log10 IC50 of C[C@H](NC1CC=C(c2[nH]c3nccc4c3c2CN(C)c2ccc(F)cc2-4)CC1)C(=O)O (some centres unmarked) = 2.00

# log10 IC50 of `CN(C)C(=O)CN1CCC=C(c2[nH]c3nccc4c3c2CN(C)c2ccc(F)cc2-4)C1` = 2.62

# log10 IC50 of `CN1Cc2c(-c3ccc(CC(=O)O)cc3)[nH]c3nccc(c23)-c2cc(F)ccc21` = 1.83

# log10 IC50 of CN1c2ccc(F)cc2-c2ccnc3[nH]c(C4=CCNCC4)c(c23)C1c1cnn(C)c1 (centres unmarked) = 2.36

# log10 IC50 of `CN1Cc2c(C3=CCN(CC(=O)N4CC(O)C4)CC3(C)C)[nH]c3nccc(c23)-c2cc(F)ccc21` = 2.98

# log10 IC50 of `CN1Cc2c(C3=CCNCC3)[nH]c3ncc(F)c(c23)-c2ccccc21` = 1.53

# log10 IC50 of `CN1Cc2c(-c3ccncc3)[nH]c3nccc(c23)-c2cc(F)ccc21` = 2.11

Cited source for all entries: patent US9328112B2
